melting point for assorted molecules
observation type: melting point

In [3]: df
Out[3]:
                                    molecule  observation_type         result
 0  C=CC[C@H]1C(=O)N(S(=O)(=O)c2ccc3ccccc3c2)[C@H]2CCN(C(=O)OCc3ccccc3)[C@H]12 (relative stereo)     melting point  158 to 160 °C
 1                 CNc1ccc(N)cc1[N+](=O)[O-]     melting point  115 to 116 °C
 2    C/C(=C\c1ccc(OCC(=O)O)cc1)[N+](=O)[O-]     melting point  149 to 151 °C
 3  COC1=C(OC)C(=O)C2=C(CCC(CCOc3ccccc3)CC2)C1=O     melting point    71 to 72 °C
 4   C=CCn1cc(C(=O)OCC)c(=O)c2cc(F)c(Cl)cc21     melting point  162 to 164 °C
 5    COC(=O)C(OC)(OC)C(=O)Nc1cc(Cl)cc(Cl)c1     melting point  160 to 164 °C
 6               COc1ccc2nc3c(cc2c1)c(N)nn3C     melting point  185 to 186 °C
 7  CCC(=O)c1ccc(-c2cc(NC(=O)OC(C)(C)C)ccc2C)c(C)c1     melting point         119 °C
 8  Cc1ccc(-c2nc(C#N)cc3c4cccc5c4n(c23)CCC5)cc1     melting point  217 to 218 °C
 9  CCOC(=O)c1c(O)c2cccnc2n(Cc2ccc(Cl)cc2)c1=O     melting point  142 to 144 °C
10  O=C(NNC(=O)c1occ(-c2ccccc2)c1-c1ccccc1)c1ccc(O)c([N+](=O)[O-])c1     melting point  214 to 217 °C
11  COc1ccc(C2=NN(CC3CCCCC3)C(=O)[C@H]3CCCC[C@@H]23)cc1OC (relative stereo)     melting point  137 to 139 °C
12  CCOC(=O)c1c(Cn2cncn2)nc2sc3c(c2c1-c1ccc(OC)c(OC)c1)CN(C(=O)OCc1ccccc1)CC3     melting point  169 to 170 °C
13      Cc1cc(Cl)c(Cl)cc1NC(=O)C1(C(=O)O)CC1     melting point  248 to 251 °C
14  O=c1[nH]ncc2[nH]c(-c3ccc(OC(F)F)c(OCC4CC4)c3)cc12     melting point  294 to 295 °C
15  Cc1c(C(=O)c2cccs2)cccc1C(C)C(=O)O (stereo not given)     melting point         100 °C
16      O=C1N=C(c2ccccc2OCC2CC2)N=C2N=CN=C12     melting point  259 to 260 °C
17            Cc1nc(Cl)c(C#N)c(NCc2cccnc2)n1     melting point  165 to 167 °C
18  CCc1c2nc(-c3cc(S(C)(=O)=O)ccc3OCC(C)C)[nH]c(=O)c2nn1Cc1nccn1C     melting point  253 to 254 °C
19  CCOC(=O)Cc1cn(Cc2ccccc2)nc1OCc1ccc(OCc2nc(-c3ccccc3)oc2C)c(OC)c1     melting point    86 to 87 °C
